Tested on: CX-1 (human colon carcinoma)
protocol summary: Clonogenic in vitro study, inhibition of cell colony formation, CX-1
Assay type: cell-based
measurement setup: CV-1 IC50 divided by CX-1 IC50
Reported Selectivity values for a set of compounds
Keep the answer to the number alone.

| compound | endpoint name | number |
| --- | --- | --- |
| CN(C)c1ccc(-c2cc(-c3ccccc3)[s+]c(-c3ccccn3)c2)cc1 [T-3] | Selectivity | 167 |
| CN(C)c1ccc(-c2cc(-c3ccccc3)[s+]c(-c3ccccn3)c2)cc1 [T-2] | Selectivity | 167 |
| CN(C)c1ccc(-c2cc(-c3ccccn3)[s+]c(-c3cccs3)c2)cc1 [T-1] | Selectivity | 200 |

Turning now to a further record.
Field Selectivity (entry CN(C)c1ccc(-c2cc(-c3ccccn3)[s+]c(-c3cccs3)c2)cc1 [T-4] ) reads 333

Data origin, for the record: patent US4774250A
